Measured values drawn from the supplement of paper PMC10127200 for this set.

Test system: A549
method_summary: Euclidean distance of Cell Painting phenotypic profile (signed KS, 77 features) to DMSO centroid (dimensionless distance); 5 or 10 uM (library dependent); higher = stronger phenotypic change vs DMSO (phenoactivity)
measurement_parameters: 48 h
Where a name gives a salt, the structure may show the parent alone.
Known Euclidean distance of a selection of compounds
assay_metric: Euclidean distance

INSERT INTO measurements (compound, recorded_number) VALUES
  ('COc1cccc(N2CCN(C3=Nc4c(F)cccc4C(CC(=O)O)N3c3cc(C(F)(F)F)ccc3OC)CC2)c1 (stereo not drawn)', 1.44),
  ('COc1ccc([C@]2(C#N)CC[C@@H](C(=O)O)CC2)cc1OC1CCCC1', 0.842),
  ('Cc1cc(C)cc(NC(=O)Cc2ccc(OC(C)(C)C(=O)O)cc2)c1 [Efaproxiral Sodium]', 0.727),
  ('O=C(NCCS(=O)(=O)c1ccc(C(F)(F)F)cn1)c1ccc(Cl)cc1', 1.54),
  ('COCCCOc1ccnc(C[S+]([O-])c2nc3ccccc3[nH]2)c1C (stereo not drawn) [Rabeprazole]', 0.662),
  ('C[C@@H](O[C@H]1OCCN(Cc2nn(P(=O)(O)O)c(=O)[nH]2)[C@H]1c1ccc(F)cc1)c1cc(C(F)(F)F)cc(C(F)(F)F)c1 [Fosaprepitant dimeglumine salt]', 1.37),
  ('O=C(c1ccccc1)c1ccc2n1CCC2C(=O)O (stereo not drawn) [Ketorolac tromethamine salt]', 0.868),
  ('O=C1Nc2ccc(CN3C(=O)CSC3=O)cc2/C1=C/c1cc(CN2CCOCC2)c[nH]1', 1.06),
  ('CNC(=O)c1ccc(N2C(=S)N(c3ccc(C#N)c(C(F)(F)F)c3)C(=O)C2(C)C)cc1F [Enzalutamide (MDV3100)]', 1.37),
  ('N[C@H]1C[C@@H]1c1ccc(-c2cccc(O)c2)cc1', 1.27),
  ('CN1C(CCl)Nc2cc(Cl)c(S(N)(=O)=O)cc2S1(=O)=O (stereo not drawn) [Methyclothiazide]', 0.722),
  ('C=CC(=O)N1CCC[C@@H](n2nc(-c3ccc(Oc4ccccc4)cc3)c3c(N)ncnc32)C1', 2.16),
  ('O=C(O)CSc1nnc(Br)n1-c1ccc(C2CC2)c2ccccc12', 0.673),
  ('CC(C)Cn1cnc2c(N)nc3ccccc3c21', 1.15),
  ('N=C(N)N [Guanidine HCl]', 0.962),
  ('COc1ccc(-n2nc(C(N)=O)c3c2C(=O)N(c2ccc(N4CCCCC4=O)cc2)CC3)cc1', 2.33),
  ('OC(Cn1cncn1)(Cn1cncn1)c1ccc(F)cc1F', 1.3),
  ('CC(C(=O)O)c1cccc(Oc2ccccc2)c1 (stereo not drawn) [Fenoprofen calcium hydrate]', 0.707);
